system: K562; assay: NCI tumour cell line growth inhibition, 48 h
Activity calls are given as the source filed them. Cut-off read from the data, not from the text of the source: active = GI50 up to about 1.1 µM and inactive = higher.
Result category, one only: active, inactive

These recorded examples may help you get a feel for the data.
| compound | group |
| --- | --- |
| O=[N+]([O-])c1cccc(S(=O)(=O)N/N=C/c2cc(I)cc([N+](=O)[O-])c2O)c1 | inactive |
| COc1ccc(Nc2nc3c(N)cc(C(F)(F)F)cc3nc2-c2ccccc2)cc1 | inactive |
| Cc1ccc(NC(=O)c2cc(S(=O)(=O)Nc3n[nH]c(=O)n3-c3ccccc3)c(S)cc2Cl)cc1 | inactive |

// outcome(item) with item = CC(C)OC(=O)c1ccc(NCc2cc(O)ccc2O)cc1
active

Check O=c1oc2ccccc2cc1-c1cn2c(n1)sc1ccccc12 too.
inactive

Check CC(C)CC(O)P(=O)(O)O.NC1CCCCC1 (configuration not stated) too.
inactive

Check COc1cccc(CC2Cc3ccccc3CC(=O)N2)c1 (configuration not stated) too.
inactive

Check COC(=O)C1(Cc2cccc(C)c2)Cc2c(C)cccc2C1=O (configuration not stated) too.
inactive

Check CCN(CC)Cc1cc(Nc2c3ccccc3nc3c2[nH]c2ccccc23)ccc1O too.
inactive

Check COc1cccc(-c2c(C#N)c(N)nc3c2CCS(=O)(=O)c2ccc(C)cc2-3)c1 too.
inactive

Check O=S(=O)(OI(OI(OS(=O)(=O)C(F)(F)F)c1ccccc1)c1ccccc1)C(F)(F)F too.
inactive

Check CCc1n[nH]c(=O)n1CC too.
inactive

====

test system: XF498; test: NCI tumour cell line growth inhibition, 48 h
Calls of active or inactive are those of the source. Cut-off read from the data, not from the text of the source: active = GI50 up to about 1.1 µM and inactive = higher.
Result category, one only: active, inactive

| compound | assay target | group |
| --- | --- | --- |
| CCOc1ccc2c(c1)[n+]([O-])c(C(N)=O)c(N)[n+]2[O-] | XF498 | inactive |
| CO[C@H](C(=O)[C@@H](O)[C@@H](C)O)[C@@H]1Cc2cc3cc(OC4CC(OC5CC(O)C(O)C(C)O5)C(O)C(C)O4)c(C)c(O)c3c(O)c2C(=O)[C@H]1OC1CC(OC2CC(OC3CC(C)(O)C(O)C(C)O3)C(O)C(C)O2)C(O)C(C)O1 (stereo not given in full) | XF498 | active |
| CC(=O)Oc1ccccc1C(=O)C1c2cccc(O)c2C(=O)c2c(O)cccc21 | XF498 | active |
| O=C1C(N2C(=O)c3ccccc3C2=O)CN1C(COCc1ccccc1)c1ccc(OCc2ccccc2)cc1 (stereo not given) | XF498 | inactive |
| O=C(OCCO)C1CC2CC1C1(C2)OCCO1 (stereo not given) | XF498 | inactive |

// outcome(item) with item = NC1=NCC(c2ccccn2)C1c1ccc(F)cc1 (stereo not given)
inactive

Check CN(C(=O)C12C3C4C5C3C1(C(=O)O)C5C42)C(C)(C)C (stereo not given) too.
inactive

Check COC(=O)/C(C#N)=C1\CCC(C(=O)OC)N1C (stereo not given) too.
inactive

Check CCOc1ccc(/N=N/c2ccc3oc(=O)c(/C(C)=N/NC(=O)CC(=O)Nc4cccc(OC)c4)cc3c2)cc1 too.
inactive

Check COc1cccc(C2C(C(=O)Nc3cc(=O)n(C)c(=O)n3C)=C(C)NC(C)=C2C(=O)Nc2cc(=O)n(C)c(=O)n2C)c1O too.
inactive

====

system: RXF 631; test: NCI tumour cell line growth inhibition, 48 h
The source made the active and inactive calls. No stated cut-off is given here; in the data, active = GI50 up to about 1.1 µM and inactive = higher.
experimental endpoint: GI50

# annotated cases, reported GI50 shown
| compound | experimental endpoint | reading |
| --- | --- | --- |
| COc1ccc(Nc2nc3c(N)cc(C(F)(F)F)cc3nc2-c2ccccc2)cc1 | GI50 | 44.6 µM (inactive) |
| O=C(CC1Sc2ccccc2NC1=O)Nc1ccccc1[N+](=O)[O-] (stereo not given) | GI50 | > 100 µM (inactive) |
| COc1cccc(C2C(C(=O)Nc3cc(=O)n(C)c(=O)n3C)=C(C)NC(C)=C2C(=O)Nc2cc(=O)n(C)c(=O)n2C)c1O | GI50 | > 100 µM (inactive) |

I need GI50 for every entry listed below, if you could help.
1. CCOC(=O)[C@H]1Nc2ccc(O)cc2C2c3ccccc3CC21 (stereo not given in full)
2. CCc1nc2ccccc2c(=O)n1/N=C(\N=N\c1ccc(Cl)cc1)c1ccccc1Cl
3. O=C(O)c1ccc([I+]c2ccccc2)cc1
4. CCOc1ccc(NC(=O)CC2C(=O)Nc3ccccc3[S+]2[O-])cc1 (stereo not given)
5. Cc1cccc2c1CCC21OC(=O)c2c1ccc1ccccc21 (stereo not given)
6. N#Cc1ccccc1NC(=O)C(=O)C(C(=O)c1ccncc1)C1OC(=O)c2ccccc21 (stereo not given)
7. Cn1c2ccccc2c(=O)c2c(O)cc3c(c21)CC(C1(C)CO1)O3 (stereo not given)

1: > 100 µM (inactive); 2: > 100 µM (inactive); 3: > 100 µM (inactive); 4: > 84.9 µM (inactive); 5: 24.4 µM (inactive); 6: > 100 µM (inactive); 7: 3.61 µM (inactive)

====

system: PC-3; test: NCI tumour cell line growth inhibition, 48 h
Active and inactive are the calls of the source. Rule as the data show it: active = GI50 up to about 1.1 µM and inactive = higher.
experimental endpoint: GI50

# annotated cases, reported GI50 shown
| compound | GI50 |
| --- | --- |
| CC(=O)C(C(=O)c1ccc(C)cc1)[C@H]1OC(C)(C)O[C@H]1[C@H]1COC(C)(C)O1 (stereo not given in full) | 2.55 µM (inactive) |
| CN(CC#N)C(=O)Cc1ccc([N+](=O)[O-])cc1 | > 10 µM (inactive) |
| Cc1c(-c2ccccc2)nn2cc(-c3ccccc3)nnc12 | 19.6 µM (inactive) |

I need GI50 for every entry listed below, if you could help.
1. Cc1ccc(S(=O)(=O)NNC2(NS(=O)(=O)c3ccc(Cl)cc3)C(Cl)=C(Cl)C(=O)c3ccccc32)cc1 (stereo not given)
2. CC1(C)OCC(CO)(Nc2nc(N3CC3)nc(N3CC3)n2)CO1
3. COc1ccc(-c2cc(-c3ccccc3)c3c(n2)-c2ccccc2NC(=O)C3)cc1

["16.7 µM (inactive)", "17.9 µM (inactive)", "28.3 µM (inactive)"]

I need GI50 for every entry listed below, if you could help.
1. CCN1CN(c2ccccc2)C2(CCN(CC3COc4ccccc4O3)CC2)C1=O (stereo not given)
2. CCOC(=O)C(NC(=O)CC(C)C)(NC(C)C)C(F)(F)F (stereo not given)
3. O=C1CC(c2ccccc2)NCCCCN2CC(CN1)C(C(O)c1ccccc1)C2=O (stereo not given)

1. 25.3 µM (inactive)
2. > 100 µM (inactive)
3. > 100 µM (inactive)

I need GI50 for every entry listed below, if you could help.
1. CC(C)(C)SC1=CCC[C@@H](P(=O)(c2ccccc2)c2ccccc2)[C@@H]2CCC[C@@H]12
2. COc1cc(OC(=O)c2ccccc2)cc2c1C(=O)C=CC2=O
3. CC(Oc1ccccc1Cl)C(=O)NN1C(=O)CC(=O)N(c2ccccc2)C1=S (stereo not given)
4. c1ccc(C2=NNC3c4ccccc4-c4ccccc4N3C2)cc1 (stereo not given)

1: 14 µM (inactive); 2: 14 µM (inactive); 3: 40.8 µM (inactive); 4: 23.7 µM (inactive)

I need GI50 for every entry listed below, if you could help.
1. CCOC(=O)/C(=N\Nc1ccc(-n2c(C)nc3ccc(Br)cc3c2=O)cc1)C(C)=O
2. COc1ccc(/C=c2/sc3n(c2=O)C(c2ccccc2)C2(O)CCCCC2N=3)cc1 (stereo not given)
3. COc1nc2c(c(=O)[nH]1)N=C(c1ccc([N+](=O)[O-])cc1)CC(c1ccccc1)N2 (stereo not given)
4. COC(=O)C1=C(OC)[C@H]2C#C/C=C\C#C[C@@H]3Nc4c(cc(O)c5c4C(=O)c4ccccc4C5=O)[C@]24O[C@@]34[C@H]1C
5. Nc1ncnc2c1ncn2C1OC(COP(=O)(O)CP(=O)(O)O)C(O)C1O (stereo not given)

["44.6 µM (inactive)", "> 12.5 µM (inactive)", "84.3 µM (inactive)", "< 0.01 µM (active)", "> 100 µM (inactive)"]

I need GI50 for every entry listed below, if you could help.
1. CCc1c2c([nH]c(=S)c1C#N)CCC2
2. Cc1cccc2c1CC(C1OC(=O)c3c(C)cccc31)C2=O (stereo not given)

> 100 µM (inactive)
> 100 µM (inactive)

====

test system: NCI-H522; test: NCI tumour cell line growth inhibition, 48 h
Calls of active or inactive are those of the source. No stated cut-off is given here; in the data, active = GI50 up to about 1.1 µM and inactive = higher.
experimental endpoint: GI50

# annotated cases, reported GI50 shown
| compound | GI50 |
| --- | --- |
| CSCC[C@@H](NC(=O)[C@H](CC(C)C)NC(=O)C(Cc1cnc[nH]1)NC(=O)CNC(=O)[C@@H](NC(=O)[C@H](C)NC(=O)[C@H](Cc1cn(C=O)c2ccccc12)NC(=O)[C@H](CCC(N)=O)NC(=O)[C@@H](N)CC(N)=O)C(C)C)C(N)=O (some centres undefined) | > 100 µM (inactive) |
| Nc1ncnc2c1ncn2C1OC(COP(=O)(O)CP(=O)(O)O)C(O)C1O (centres undefined) | > 100 µM (inactive) |
| Cc1nn2c(=O)c([N+](=O)[O-])c(/C=C/c3ccc(F)cc3)nc2s1 | 8.49 µM (inactive) |
| COc1c(OC2OC(CO)C(O)C(O)C2O)cc2c(c1OC)-c1ccc(OC)c(=O)cc1[C@@H](NC(C)=O)CC2 (some centres undefined) | 43.8 µM (inactive) |

I need GI50 for every entry listed below, if you could help.
1. CCc1n[nH]c(=O)n1CC
2. O=c1[nH]nc(Cc2ccc(Cl)cc2)n1/N=C/c1ccco1

["> 100 µM (inactive)", "58.9 µM (inactive)"]
